Cited source: patent US5217960A

Reported MIC by item:
tested on: PSEUDOMONAS CEPACIA 296I; test: In vitro antibacterial activity, agar dilution MIC; type: cell-based; conditions: Burkholderia cepacia; P. cepacia 296I; BHI agar, 35-37° C., 20 to 24 hours; read-out: MIC

| COMPOUND | MEASURED_TARGET | MIC |
| --- | --- | --- |
| CC[C@H]1OC(=O)[C@H](C)[C@@H](O[C@H]2C[C@@](C)(OC)[C@@H](O)[C@H](C)O2)[C@H](C)[C@@H](O[C@@H]2O[C@H](C)C[C@H](N(C)C)[C@H]2O)[C@](C)(O)C[C@@H](C)[C@@H](N)[C@H](C)[C@@H](O)[C@@]1(O)CN [Compound 15, (9R)-9,21-diamino-9-deoxo-erythromycin A] | PSEUDOMONAS CEPACIA 296I | 100 µg/mL |
| CC[C@H]1OC(=O)[C@H](C)[C@@H](O[C@H]2C[C@@](C)(OC)[C@@H](O)[C@H](C)O2)[C@H](C)[C@@H](O[C@@H]2O[C@H](C)C[C@H](N(C)C)[C@H]2O)[C@](C)(O)C[C@@H](C)[C@@H](N(C)C)[C@H](C)[C@@H](O)[C@H]1CO [Compound 11] | PSEUDOMONAS CEPACIA 296I | > 100 µg/mL |
| CC[C@H]1OC(=O)[C@H](C)[C@@H](O[C@H]2C[C@@](C)(OC)[C@@H](O)[C@H](C)O2)[C@H](C)[C@@H](O[C@@H]2O[C@H](C)C[C@H](N(C)C)[C@H]2O)[C@](C)(O)C[C@@H](C)[C@@H](N(C)C)[C@H](C)[C@@H](O)[C@@]1(O)CO [Compound 10] | PSEUDOMONAS CEPACIA 296I | > 100 µg/mL |
| CC[C@H]1OC(=O)[C@H](C)[C@@H](O[C@H]2C[C@@](C)(OC)[C@@H](O)[C@H](C)O2)[C@H](C)[C@@H](O[C@@H]2O[C@H](C)C[C@H](N(C)C)[C@H]2O)[C@](C)(O)C[C@@H](C)[C@@H](N(C)C)[C@H](C)[C@@H](O)[C@@]1(O)CNC [Compound 17] | PSEUDOMONAS CEPACIA 296I | > 100 µg/mL |
| CC[C@H]1OC(=O)[C@H](C)[C@@H](O[C@H]2C[C@@](C)(OC)[C@@H](O)[C@H](C)O2)[C@H](C)[C@@H](O[C@@H]2O[C@H](C)C[C@H](N(C)C)[C@H]2O)[C@](C)(O)C[C@@H](C)[C@@H](N)[C@H](C)[C@@H](O)[C@@]1(O)CNCc1ccccc1 [Compound 14] | PSEUDOMONAS CEPACIA 296I | > 100 µg/mL |
| CC[C@H]1OC(=O)[C@H](C)[C@@H](O[C@H]2C[C@@](C)(OC)[C@@H](O)[C@H](C)O2)[C@H](C)[C@@H](O[C@@H]2O[C@H](C)C[C@H](N(C)C)[C@H]2O)[C@](C)(O)C[C@@H](C)[C@@H](N(C)C)[C@H](C)[C@@H](O)[C@@]1(O)CN(C)C [Compound 18] | PSEUDOMONAS CEPACIA 296I | > 100 µg/mL |
| CC[C@H]1OC(=O)[C@H](C)[C@@H](O[C@H]2C[C@@](C)(OC)[C@@H](O)[C@H](C)O2)[C@H](C)[C@@H](O[C@@H]2O[C@H](C)C[C@H](N(C)C)[C@H]2O)[C@](C)(O)C[C@@H](C)[C@@H](N(C)C)[C@H](C)[C@@H](O)[C@@]12CO2 [Compound 8] | PSEUDOMONAS CEPACIA 296I | > 100 µg/mL |

* * *

system: ESCHERICHIA COLI H560; test: In vitro antibacterial activity, agar dilution MIC; format: cell-based; conditions: E. coli H560, BHI agar, 35-37° C., 20 to 24 hours, read-out: MIC
Measured MIC of individual entries
OUTCOME_MEASURE: MIC (µg/mL)

| MOLECULE | MEASURED_TARGET | READOUT_UNITS | BOUND_SIGN | RECORDED_NUMBER |
| --- | --- | --- | --- | --- |
| CC[C@H]1OC(=O)[C@H](C)[C@@H](O[C@H]2C[C@@](C)(OC)[C@@H](O)[C@H](C)O2)[C@H](C)[C@@H](O[C@@H]2O[C@H](C)C[C@H](N(C)C)[C@H]2O)[C@](C)(O)C[C@@H](C)[C@@H](N(C)C)[C@H](C)[C@@H](O)[C@@]1(O)CN(C)C [Compound 18] | ESCHERICHIA COLI H560 | µg/mL | = | 3.1 |
| CC[C@H]1OC(=O)[C@H](C)[C@@H](O[C@H]2C[C@@](C)(OC)[C@@H](O)[C@H](C)O2)[C@H](C)[C@@H](O[C@@H]2O[C@H](C)C[C@H](N(C)C)[C@H]2O)[C@](C)(O)C[C@@H](C)[C@@H](N)[C@H](C)[C@@H](O)[C@@]1(O)CN [Compound 15, (9R)-9,21-diamino-9-deoxo-erythromycin A] | ESCHERICHIA COLI H560 | µg/mL | > | 100 |
| CC[C@H]1OC(=O)[C@H](C)[C@@H](O[C@H]2C[C@@](C)(OC)[C@@H](O)[C@H](C)O2)[C@H](C)[C@@H](O[C@@H]2O[C@H](C)C[C@H](N(C)C)[C@H]2O)[C@](C)(O)C[C@@H](C)[C@@H](N(C)C)[C@H](C)[C@@H](O)[C@@]1(O)CN(C)Cc1ccccc1 [Compound 16] | ESCHERICHIA COLI H560 | µg/mL | = | 100 |

* * *

system: PSEUDOMONAS AERUGINOSA BMH10; test: In vitro antibacterial activity, agar dilution MIC; type: cell-based; details: P. aeruginosa BMH10, BHI agar, 35-37° C., 20 to 24 hours, read-out: MIC
OUTCOME_MEASURE: MIC

| MOLECULE | MEASURED_TARGET | RESULT |
| --- | --- | --- |
| CC[C@H]1OC(=O)[C@H](C)[C@@H](O[C@H]2C[C@@](C)(OC)[C@@H](O)[C@H](C)O2)[C@H](C)[C@@H](O[C@@H]2O[C@H](C)C[C@H](N(C)C)[C@H]2O)[C@](C)(O)C[C@@H](C)[C@@H](N(C)C)[C@H](C)[C@@H](O)[C@@]1(O)CO [Compound 10] | PSEUDOMONAS AERUGINOSA BMH10 | > 100 µg/mL |
| CC[C@H]1OC(=O)[C@H](C)[C@@H](O[C@H]2C[C@@](C)(OC)[C@@H](O)[C@H](C)O2)[C@H](C)[C@@H](O[C@@H]2O[C@H](C)C[C@H](N(C)C)[C@H]2O)[C@](C)(O)C[C@@H](C)[C@@H](N(C)C)[C@H](C)[C@@H](O)[C@@]1(O)CN(C)Cc1ccccc1 [Compound 16] | PSEUDOMONAS AERUGINOSA BMH10 | > 100 µg/mL |
| CC[C@H]1OC(=O)[C@H](C)[C@@H](O[C@H]2C[C@@](C)(OC)[C@@H](O)[C@H](C)O2)[C@H](C)[C@@H](O[C@@H]2O[C@H](C)C[C@H](N(C)C)[C@H]2O)[C@](C)(O)C[C@@H](C)[C@@H](N)[C@H](C)[C@@H](O)[C@@]1(O)CN [Compound 15, (9R)-9,21-diamino-9-deoxo-erythromycin A] | PSEUDOMONAS AERUGINOSA BMH10 | > 100 µg/mL |
| CC[C@H]1OC(=O)[C@H](C)[C@@H](O[C@H]2C[C@@](C)(OC)[C@@H](O)[C@H](C)O2)[C@H](C)[C@@H](O[C@@H]2O[C@H](C)C[C@H](N(C)C)[C@H]2O)[C@](C)(O)C[C@@H](C)[C@@H](N(C)C)[C@H](C)[C@@H](O)[C@@]1(O)CNC [Compound 17] | PSEUDOMONAS AERUGINOSA BMH10 | 100 µg/mL |

* * *

system: STAPHYLOCOCCUS AUREUS NCTC 10649; test: In vitro antibacterial activity, agar dilution MIC; assay type: cell-based; conditions: NCTC10649, 24 h
OUTCOME_MEASURE: MIC

| SMILES_CODE | RESULT |
| --- | --- |
| CC[C@H]1OC(=O)[C@H](C)[C@@H](O[C@H]2C[C@@](C)(OC)[C@@H](O)[C@H](C)O2)[C@H](C)[C@@H](O[C@@H]2O[C@H](C)C[C@H](N(C)C)[C@H]2O)[C@](C)(O)C[C@@H](C)[C@@H](N(C)C)[C@H](C)[C@@H](O)[C@H]1CO | 6.2 µg/mL |
| CC[C@H]1OC(=O)[C@H](C)[C@@H](O[C@H]2C[C@@](C)(OC)[C@@H](O)[C@H](C)O2)[C@H](C)[C@@H](O[C@@H]2O[C@H](C)C[C@H](N(C)C)[C@H]2O)[C@](C)(O)C[C@@H](C)[C@@H](N(C)C)[C@H](C)[C@@H](O)[C@@]1(O)CN(C)C | 1.56 µg/mL |
| CC[C@H]1OC(=O)[C@H](C)[C@@H](O[C@H]2C[C@@](C)(OC)[C@@H](O)[C@H](C)O2)[C@H](C)[C@@H](O[C@@H]2O[C@H](C)C[C@H](N(C)C)[C@H]2O)[C@](C)(O)C[C@@H](C)[C@@H](N(C)C)[C@H](C)[C@@H](O)[C@@]1(O)CNC | 6.2 µg/mL |
| CC[C@H]1OC(=O)[C@H](C)[C@@H](O[C@H]2C[C@@](C)(OC)[C@@H](O)[C@H](C)O2)[C@H](C)[C@@H](O[C@@H]2O[C@H](C)C[C@H](N(C)C)[C@H]2O)[C@](C)(O)C[C@@H](C)[C@@H](N(C)C)[C@H](C)[C@@H](O)[C@@]1(O)CO | 12.5 µg/mL |
| CC[C@H]1OC(=O)[C@H](C)[C@@H](O[C@H]2C[C@@](C)(OC)[C@@H](O)[C@H](C)O2)[C@H](C)[C@@H](O[C@@H]2O[C@H](C)C[C@H](N(C)C)[C@H]2O)[C@](C)(O)C[C@@H](C)[C@@H](N)[C@H](C)[C@@H](O)[C@@]1(O)CNCc1ccccc1 | 3.1 µg/mL |
